assay: clinical; conditions: human, in vivo, iv, CL
Use 7 mL/min/kg as the dividing line for clearance, with the line itself on the 1 (yes) side and lower values as 0 (no).

Task item: Determine whether this compound has clearance no lower than 7 mL/min/kg: C[C@H](O)C(=O)Nc1c(I)c(C(=O)NC(CO)CO)c(I)c(C(=O)NC(CO)CO)c1I
Reply: 0 (no)

Task item: Determine whether this compound has clearance no lower than 7 mL/min/kg: COc1cc([C@@H]2c3cc4c(cc3[C@@H](O[C@@H]3O[C@@H]5CO[C@@H](c6cccs6)O[C@H]5[C@H](O)[C@H]3O)[C@H]3COC(=O)[C@H]23)OCO4)cc(OC)c1O [TENIPOSIDE]
Reply: 0 (no)

Task item: Determine whether this compound has clearance no lower than 7 mL/min/kg: CC(CCc1ccccc1)NCC(O)c1ccc(O)c(C(N)=O)c1 (configuration not stated)
Reply: 1 (yes)

Task item: Determine whether this compound has clearance no lower than 7 mL/min/kg: CCCN1CCCC[C@H]1C(=O)Nc1c(C)cccc1C
Reply: 0 (no)

Task item: Determine whether this compound has clearance no lower than 7 mL/min/kg: CO/N=C(\C(=O)N[C@@H]1C(=O)N2C(C(=O)O)=C(CSc3nc(=O)c(=O)[nH]n3C)CS[C@H]12)c1csc(N)n1
Reply: 0 (no)

Task item: Determine whether this compound has clearance no lower than 7 mL/min/kg: COC(=O)C1=C(C)NC(C)=C(C(=O)OCC(C)C)C1c1ccccc1[N+](=O)[O-] (configuration not stated)
Reply: 1 (yes)

Task item: Determine whether this compound has clearance no lower than 7 mL/min/kg: O=[N+]([O-])O[C@H]1CO[C@H]2[C@@H]1OC[C@H]2O[N+](=O)[O-] [ISOSORBIDE DINITRATE]
Reply: 1 (yes)

Task item: Determine whether this compound has clearance no lower than 7 mL/min/kg: OC(Cn1cncn1)(Cn1cncn1)c1ccc(F)cc1F
Reply: 0 (no)

Task item: Determine whether this compound has clearance no lower than 7 mL/min/kg: Cc1nnc(SCC2=C(C(=O)O)N3C(=O)[C@@H](NC(=O)[C@H](O)c4ccccc4)[C@H]3SC2)s1
Reply: 0 (no)

Task item: Determine whether this compound has clearance no lower than 7 mL/min/kg: CN1CCOC(c2ccccc2)c2ccccc2C1 (configuration not stated)
Reply: 1 (yes)

Task item: Determine whether this compound has clearance no lower than 7 mL/min/kg: CN(C)CCCN1c2ccccc2CCc2cc(O)ccc21 [2-HYDROXYIMIPRAMINE]
Reply: 1 (yes)

Task item: Determine whether this compound has clearance no lower than 7 mL/min/kg: CCN(CC)CCNC(=O)c1cc(Cl)c(N)cc1OC [METOCLOPRAMIDE]
Reply: 0 (no)

Task item: Determine whether this compound has clearance no lower than 7 mL/min/kg: COc1cccc2c1C(=O)c1c(O)c3c(c(O)c1C2=O)C[C@@](O)(C(=O)CO)C[C@@H]3O[C@H]1C[C@H](N)[C@@H](O)[C@H](C)O1 [EPIRUBICIN]
Reply: 1 (yes)

Task item: Determine whether this compound has clearance no lower than 7 mL/min/kg: COC(=O)C1=C(C)NC(C)=C(C(=O)OCCCN2CCC(c3ccccc3)(c3ccccc3)CC2)[C@@H]1c1cccc([N+](=O)[O-])c1
Reply: 1 (yes)

Task item: Determine whether this compound has clearance no lower than 7 mL/min/kg: CN(C)CCc1c[nH]c2ccc(CS(=O)(=O)N3CCCC3)cc12
Reply: 1 (yes)

Task item: Determine whether this compound has clearance no lower than 7 mL/min/kg: COc1ccc2[nH]c([S+]([O-])Cc3ncc(C)c(OC)c3C)nc2c1 (configuration not stated)
Reply: 1 (yes)
